Measured collision cross section accompanies every entry in the list below.
Assay Text: collision cross section of modified peptide (TIMS, N2, iRT-aligned); higher = larger / more extended gas-phase ion
Cond: charge state: 2; modification: Methyl (K)
Readout: collision cross section (Å²)

>  <Sequence Input>
VQGGALEDSQLVAGVAFKK [_VQGGALEDSQLVAGVAFK(Methyl (K))K_]

>  <Reported Result>
497.72

$$$$
>  <Sequence Input>
SLFFGGKGAPLQR [_SLFFGGK(Methyl (K))GAPLQR_]

>  <Reported Result>
405.87

$$$$
>  <Sequence Input>
DASTLQSQKAEGTGDAK [_DASTLQSQK(Methyl (K))AEGTGDAK_]

>  <Reported Result>
440.39

$$$$
>  <Sequence Input>
DYSSGFGGKYGVQADR [_DYSSGFGGK(Methyl (K))YGVQADR_]

>  <Reported Result>
432

$$$$
>  <Sequence Input>
VGVEVPDVNIEGPEGKLK [_VGVEVPDVNIEGPEGK(Methyl (K))LK_]

>  <Reported Result>
459.11

$$$$
>  <Sequence Input>
DAIHFYNKSLAEHR [_DAIHFYNK(Methyl (K))SLAEHR_]

>  <Reported Result>
441.67

$$$$
>  <Sequence Input>
IGNSYFKEEK [_IGNSYFK(Methyl (K))EEK_]

>  <Reported Result>
373.94

$$$$
>  <Sequence Input>
ISALQGKLSK [_ISALQGK(Methyl (K))LSK_]

>  <Reported Result>
354.46

$$$$
>  <Sequence Input>
IQQELQTAKK [_IQQELQTAK(Methyl (K))K_]

>  <Reported Result>
376.86

$$$$
>  <Sequence Input>
ITASLCDLKSR [_ITASLCDLK(Methyl (K))SR_]

>  <Reported Result>
398.61

$$$$
>  <Sequence Input>
LDHLAEKFR [_LDHLAEK(Methyl (K))FR_]

>  <Reported Result>
368.51

$$$$
>  <Sequence Input>
VNIGQGSHPQKVK [_VNIGQGSHPQK(Methyl (K))VK_]

>  <Reported Result>
409.02

$$$$
>  <Sequence Input>
TLDEILQEKK [_TLDEILQEK(Methyl (K))K_]

>  <Reported Result>
377.9

$$$$
>  <Sequence Input>
ASDTSSETVFGKR [_ASDTSSETVFGK(Methyl (K))R_]

>  <Reported Result>
406.57

$$$$
>  <Sequence Input>
SNEEGSEEKGPEVR [_SNEEGSEEK(Methyl (K))GPEVR_]

>  <Reported Result>
394.85

$$$$
>  <Sequence Input>
VDVEVPDVSLEGPEGKLK [_VDVEVPDVSLEGPEGK(Methyl (K))LK_]

>  <Reported Result>
462.48

$$$$
>  <Sequence Input>
IVFSGNLFQHQEDSKK [_IVFSGNLFQHQEDSK(Methyl (K))K_]

>  <Reported Result>
490.37

$$$$
>  <Sequence Input>
AAINQKLIETGER [_AAINQK(Methyl (K))LIETGER_]

>  <Reported Result>
414.21

$$$$
>  <Sequence Input>
IVSGKDYNVTANSK [_IVSGK(Methyl (K))DYNVTANSK_]

>  <Reported Result>
411.95

$$$$
>  <Sequence Input>
SLEEEGAAHSGKR [_SLEEEGAAHSGK(Methyl (K))R_]

>  <Reported Result>
413.71

$$$$
>  <Sequence Input>
VPTTEKPTVTVNFR [_VPTTEK(Methyl (K))PTVTVNFR_]

>  <Reported Result>
426.88

$$$$
>  <Sequence Input>
LQAAYAGDKADDIQK [_LQAAYAGDK(Methyl (K))ADDIQK_]

>  <Reported Result>
430.05

$$$$

The values you see were collected from the supplement of paper PMC10598134.
